Where these numbers come from: patent US20260092057A1

- Tested on: Caki-2 cells
- Assay: CTG (CellTiter-Glo) cell viability assay, Caki-2
- Assay type: cell-based
- Assay Conditions: Homo sapiens, CAKI-2, 72 h, Caki-2, 3-day; read-out: CTG Chempartner/PHA- Caki-2 3-day: Average external-IC50
pIC50: −log10 of the molar value.
Endpoint: pIC50

Examples with answers:
INSERT INTO measurements (compound, observed_measurement) VALUES
  ('Cc1ncsc1-c1ccc([C@H](C)NC(=O)[C@@H]2C[C@@H](O)CN2C(=O)[C@@H](NC(=O)CCCCC(=O)N2CCN(CCCNc3ccc(S(=O)(=O)NC(=O)c4ccc(N5CCN(CC6=C(c7ccc(Cl)cc7)CC(C)(C)CC6)CC5)cc4Oc4cnc5[nH]ccc5c4)cc3S(=O)(=O)C(F)(F)F)CC2)C(C)(C)C)cc1 [I-63]', '< 4.52'),
  ('Cc1ncsc1-c1ccc([C@H](C)NC(=O)[C@@H]2C[C@@H](O)CN2C(=O)[C@@H](NC(=O)CCCCCC(=O)N2CCCN(CCCNc3ccc(S(=O)(=O)NC(=O)c4ccc(N5CCN(CC6=C(c7ccc(Cl)cc7)CC(C)(C)CC6)CC5)cc4Oc4cnc5[nH]ccc5c4)cc3S(=O)(=O)C(F)(F)F)CC2)C(C)(C)C)cc1 [I-106]', '< 4.52');

Now for another entry.
pIC50 recorded for this compound, Cc1ncsc1-c1ccc([C@H](C)NC(=O)[C@@H]2C[C@@H](O)CN2C(=O)[C@@H](NC(=O)CCCCCC(=O)N(C)CC[C@H](CSc2ccccc2)Nc2ccc(S(=O)(=O)NC(=O)c3ccc(N4CCC(C(O)c5ccccc5-c5ccc(Cl)cc5)CC4)cc3)cc2S(=O)(=O)C(F)(F)F)C(C)(C)C)cc1 (stereo partly drawn) [I-71] , is 4.52 to 5.00
